- experimental_system: UniProtKB Q12809
- Sequence (Q12809 whole entry): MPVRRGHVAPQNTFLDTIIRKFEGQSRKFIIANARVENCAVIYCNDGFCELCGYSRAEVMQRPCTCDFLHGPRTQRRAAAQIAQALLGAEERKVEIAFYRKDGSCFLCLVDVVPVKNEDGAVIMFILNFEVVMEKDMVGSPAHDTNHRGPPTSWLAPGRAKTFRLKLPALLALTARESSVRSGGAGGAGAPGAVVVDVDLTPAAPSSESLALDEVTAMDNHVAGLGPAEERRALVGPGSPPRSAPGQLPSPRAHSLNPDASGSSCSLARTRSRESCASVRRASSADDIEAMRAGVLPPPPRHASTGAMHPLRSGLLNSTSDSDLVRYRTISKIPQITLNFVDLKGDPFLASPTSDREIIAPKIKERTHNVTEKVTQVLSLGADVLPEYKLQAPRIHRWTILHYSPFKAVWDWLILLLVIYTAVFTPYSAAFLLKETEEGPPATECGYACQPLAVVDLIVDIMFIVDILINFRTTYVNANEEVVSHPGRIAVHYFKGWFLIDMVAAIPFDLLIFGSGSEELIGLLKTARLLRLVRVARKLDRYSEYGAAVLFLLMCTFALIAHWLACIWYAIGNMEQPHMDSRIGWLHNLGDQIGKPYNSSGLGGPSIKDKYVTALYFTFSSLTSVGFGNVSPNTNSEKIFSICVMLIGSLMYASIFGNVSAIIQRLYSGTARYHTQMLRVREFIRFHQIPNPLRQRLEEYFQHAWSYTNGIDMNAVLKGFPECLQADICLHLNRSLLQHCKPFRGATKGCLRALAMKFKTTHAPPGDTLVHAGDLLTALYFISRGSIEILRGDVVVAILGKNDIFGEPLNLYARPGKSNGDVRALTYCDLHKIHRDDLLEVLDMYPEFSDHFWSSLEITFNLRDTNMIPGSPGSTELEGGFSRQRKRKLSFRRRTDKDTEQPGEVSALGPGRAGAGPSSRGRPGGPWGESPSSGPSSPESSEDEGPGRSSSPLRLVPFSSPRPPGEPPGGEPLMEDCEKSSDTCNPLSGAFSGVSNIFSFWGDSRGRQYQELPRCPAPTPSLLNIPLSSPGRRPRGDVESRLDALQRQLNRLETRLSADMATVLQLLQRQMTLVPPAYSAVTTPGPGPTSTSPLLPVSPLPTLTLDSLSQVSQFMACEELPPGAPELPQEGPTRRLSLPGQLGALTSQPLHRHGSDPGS
- test_method_notes: hERG competition binding assay (3H-astemizole)
- condition_parameters: HEK-293 cells stably expressing recombinant hERG channels, probe 3H-astemizole
molecules and their reported inhibition at 10 µM
Units required after the number.

Known results for molecules:
INSERT INTO results (molecule, experimental_system, metric, observed_measurement) VALUES
  ('Clc1cc(-c2ccccc2)nnc1N1CCN(c2ncccn2)CC1 [MW01-6-127WH]', 'UniProtKB Q12809', 'inhibition at 10 µM', '19%'),
  ('Cc1cc(-c2ccccc2)nnc1N1CCN(c2ncccn2)CC1', 'UniProtKB Q12809', 'inhibition at 10 µM', '8%');

The record that follows has no inhibition at 10 µM shown yet.
Lab note: measured inhibition at 10 µM of c1ccc(-c2cc(-c3ccccc3)c(N3CCN(c4ncccn4)CC3)nn2)cc1 [MW01-5-188WH] was 91%

src = patent US9527819B2
